Each recorded value in this set is attributed to ChEMBL document CHEMBL4834402.

- assay explanation: Clearance in rat plasma at 1 mg/kg, iv
- Format: ADME, organism-based
- condition details: in vivo
endpoint name: clearance (mL/min/kg)

compound	clearance, mL/min/kg
Cc1sc(C(=O)c2cncnc2N[C@@H]2C[C@H](COS(N)(=O)=O)[C@@H](O)C2)cc1[C@@H]1NCCc2ccc(Cl)cc21	61.7
Cc1sc(C(=O)c2cncnc2N[C@@H]2C[C@H](COS(N)(=O)=O)[C@@H](O)C2)cc1C1OCCc2ccc(Cl)cc21 (stereo in doubt)	86.7
NS(=O)(=O)OC[C@H]1C[C@@H](Nc2ncncc2C(=O)c2ccn(Cc3cccc(Br)c3)n2)C[C@@H]1O	85
